Biological target: native Tsal proteins in G. m. morsitans saliva (Glossina morsitans morsitans (endogenous in saliva))
Experiment: SPR; 4000 RU G. m. morsitans saliva amine-coupled (10 mM sodium acetate pH 4.5) on a CM5 chip; purified Nb analytes 500 to 0.976 nM; BIAcore T200; contact 180 s, dissociation 600 s, 10 ul/min; Langmuir 1:1 fit
TEST_READOUT: koff (s⁻¹)

Recorded koff, per entry:
>  <BINDER>
TsalNb-10 (VHH) VHH: QVQLQESGGGLVQVGGSLRLSCAASGSIFSNNYMGWYRQAPGKQRELVAGITSGGSTNYADSVKGRFTISRDNAKNTVYLQMNNLKPEDTAVYNCKPRGWLTGRWENYWGQGTQVTVSS

>  <UNIT_OF_MEASUREMENT>
s⁻¹

>  <koff>
0.001

$$$$
>  <BINDER>
TsalNb-12 (VHH) VHH: QVQLQESGGGLVQPGGSLRLSCTASGSIFSINYANWYRQAPGKQRELVAGITSDGSTNYADSVKGRFTISRDNAKNTVYLQMNRLTPEDTAVYYCKPRAWLTGRWENYWGQGTQVTVSS

>  <UNIT_OF_MEASUREMENT>
s⁻¹

>  <koff>
0.00039

$$$$
>  <BINDER>
TsalNb-1 (VHH) VHH: QVQLQESGGGLVQVGGSLRLSCTASGSIFSINYANWYRQAPGKQRELVAGITSDGSTNYADSVKGRFTISRDNAKNTVYLQMNRLTPEDTAVYYCKPRAWLTGRWENYWGQGTQVTVSS

>  <UNIT_OF_MEASUREMENT>
s⁻¹

>  <koff>
0.00037

$$$$

(P) TsalNb-11 (VHH) VHH: QVQLQESGGGLVQPGESLRLSCAASEFTLDYYAMAWYRQAPGKQREGVSCITSSGGRTNYADSVKGRFTISRENGKNTVYLQMSSLKPGDTAVYYCAATEWLAGTKCLGSHEYDYWGQGTQVTVSS
(Q) TsalNb-2 (VHH) VHH: QVQLQESGGGLVQVGGSLRLSCQASGSIFSNSYMGWYRQAPGKQRELVAGITSGGSTNYADSVKGRFTISRDNAKNTVYLQMNSLKPEDTAVYYCKPRAWLTGRWENYWGQGTQVTVSS
Hi there, can you help? I need to know whether P or Q has lower measured koff. Please identify the chosen entry by its label.
Q
(Q: 0.00077 s⁻¹, P: 0.0035 s⁻¹)

Values were extracted from paper PMC4320081.
